Test system: DERL-7 (IL-2 2.5 ng/mL);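 note: normalised to DMSO-only wells as negative and benzethonium chloride as positive control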
measurementProtocol: percent inhibition of viability; higher = more inhibition
measurementSetup: 72 h; 1 nM

molecule	percent inhibition of viability
CCc1cc(Nc2nccc(-c3c(-c4ccc(OC)c(C(=O)Nc5c(F)cccc5F)c4)nc4ccccn34)n2)c(OC)cc1N1CCC(N2CCN(S(C)(=O)=O)CC2)CC1 (max concentration tested 10000 nM)	-3.29%
Cc1cn(-c2cc(NC(=O)c3ccc(C)c(Nc4nccc(-c5cccnc5)n4)c3)cc(C(F)(F)F)c2)cn1 [Nilotinib] (max concentration tested 10000 nM)	-4.23%
CC(C)C(=O)Nc1ccc([N+](=O)[O-])c(C(F)(F)F)c1 [Flutamide] (max concentration tested 10000 nM)	0.26%
